test_system: HCV polymerase (NS5B570n-Con1) (Hepatitis C virus genotype 1b, UniProt Q9WMX2)
Construct: a 21 amino acid C-terminal deletion of full-length HCV polymerase
assay_overview: biochemical
measured_property: IC50 (nM)
Numbers only, in nM.

As a guide, the following entries are already answered.
Quick note, IC50 for CC(C)(C)c1cc(-c2ccc[nH]c2=O)cc2c(C(=O)N3CCC3)coc12 landed at 148

Quick note, IC50 for CC(C)(C)c1cc(-c2ccc[nH]c2=O)cc2c(C(=O)N3CCC[C@H]3CO)coc12 landed at 112

Quick note, IC50 for CC(C)(C)c1cc(-c2ccc[nH]c2=O)cc2c(C(=O)N3CCC(CN)C3)coc12 (stereo not drawn) landed at 104

Give IC50 for all compounds that follow.
1. CC(C)(C)c1cc(-c2ccc[nH]c2=O)cc2c(C(=O)N3CCSC3)coc12
2. CN(C)[C@@H]1CCN(C(=O)c2coc3c(C(C)(C)C)cc(-c4ccc[nH]c4=O)cc23)C1

Result:
50
889
